quantity: melting point

Example results:
INSERT INTO measurements (compound, quantity, endpointresult) VALUES
  ('COc1cc(C2=CCN(S(=O)(=O)CC(=O)NO)CC2)ccc1-c1ccccc1', 'melting point', '175 to 177 °C'),
  ('COc1ccc(-c2ccc(C3=CCN(S(=O)(=O)CC(=O)NO)CC3)cc2C)cc1OC', 'melting point', '172 to 174 °C'),
  ('COc1cccc(-c2ccc(C3CCN(S(=O)(=O)C(C)(C)C(=O)NO)CC3)cc2OC)c1', 'melting point', '161 to 163 °C');

Moving on to the next compound.
Q) Can you share its melting point? I mean this compound: C=C(C)CC(C(=O)NO)S(=O)(=O)N1CC=C(c2ccc(-c3ccccc3)cc2)CC1 (racemic)
A) 170 to 171 °C

====

- targetOfAssay: MMP-2 (Homo sapiens, UniProt P08253)
- Construct: Catalytic domains MMP-2, MMP-3 and MMP-9 were prepared in Pfizer Central Research laboratories
- Sequence (P08253 with tags, fused parts or gaps DEL222-396 limits assumed): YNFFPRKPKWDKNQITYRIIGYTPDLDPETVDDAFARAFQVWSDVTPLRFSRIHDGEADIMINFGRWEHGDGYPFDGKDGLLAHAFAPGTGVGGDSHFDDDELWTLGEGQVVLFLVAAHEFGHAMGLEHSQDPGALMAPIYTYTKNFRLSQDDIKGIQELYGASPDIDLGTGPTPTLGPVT
- assaySummary: Inhibition of MMP-2 (fluorogenic peptide cleavage)
- Format: biochemical
- conditionLabel: in vitro, catalytic domain MMP-2
quantity: log10(IC50) (log10 of the value in nM)
Log scale reminder: IC50 in nM, then log10 taken.

Q) Observed log10(IC50) on MMP-2 (Homo sapiens, UniProt P08253) for Cc1cc(C2=CCN(S(=O)(=O)CC(=O)NO)CC2)ccc1-c1ccccc1 , please.
A) 2.50

Q) How about CCOc1cccc(-c2ccc(C3=CCN(S(=O)(=O)C4(C(=O)NO)CCOCC4)CC3)cc2C)c1 ?
A) 2.64

Q) And the next one, Cc1cc(C2=CCN(S(=O)(=O)CC(=O)NO)CC2)ccc1-c1ccc2c(c1)OCO2 ?
A) 2.59

Q) What about this compound? Cc1cc(C2=CCN(S(=O)(=O)C(C)(C)C(=O)NO)CC2)ccc1-c1cnc2ccccc2c1
A) 2.72

====

quantity: melting point

The examples below pair each entry with its known result.
INSERT INTO measurements (molecule, endpointresult) VALUES
  ('O=C(CS(=O)(=O)N1CCC(c2ccc(Oc3ccccc3)cc2)CC1)NO', '176 to 179 °C'),
  ('O=C(CS(=O)(=O)N1CC=C(c2ccccc2)CC1)NO', '175 to 176 °C'),
  ('Cc1cc(C2CCN(S(=O)(=O)C(C)(C)C(=O)NO)CC2)ccc1-c1ccc2c(c1)OC(C)(C)O2', '184 to 186 °C'),
  ('O=C(CS(=O)(=O)N1CC=C(c2ccc(-c3ccccc3)c(F)c2)CC1)NO', '184 to 188 °C');

Q) Item Cc1cc(C2=CCN(S(=O)(=O)CC(=O)NO)CC2)ccc1-c1cccc(CO)c1 has what recorded melting point?
A) 174 to 176 °C

Q) Also, COCc1cccc(-c2ccc(C3=CCN(S(=O)(=O)CC(=O)NO)CC3)cc2C)c1 please.
A) 151 to 153 °C

Q) Another: Cc1cc(C2=CCN(S(=O)(=O)CC(=O)NO)CC2)ccc1-c1cccc(OC(F)(F)F)c1
A) 154 °C

Q) And CCCCC(C(=O)NO)S(=O)(=O)N1CC=C(c2ccc(-c3ccccc3)cc2)CC1 (racemic) ?
A) 186 to 189 °C

Q) Cc1cc(C2=CCN(S(=O)(=O)CC(=O)NO)CC2)ccc1-c1ccccc1F , same question.
A) 160 to 163 °C

Q) Next entry: CCc1cccc(-c2ccc(C3=CCN(S(=O)(=O)CC(=O)NO)CC3)cc2C)c1
A) 151 to 154 °C

Q) Try this molecule too: CCOc1cccc(-c2ccc(C3CCN(S(=O)(=O)C(C)(C)C(=O)NO)CC3)cc2OC)c1
A) 134 to 136 °C

Q) Repeat for the following molecule: O=C(CS(=O)(=O)N1CCC(Cc2ccccc2)CC1)NO
A) 132 to 135 °C

Q) Please give the result for Cc1cc(C2=CCN(S(=O)(=O)CC(=O)NO)CC2)ccc1-c1ccccc1 too.
A) 190 to 191 °C

Q) Thanks! And O=C(CS(=O)(=O)N1CCC(c2ccccc2)CC1)NO ?
A) 185 to 187 °C

Q) Now give it for Cc1cc(C2=CCN(S(=O)(=O)CC(=O)NO)CC2)ccc1-c1cccc(C(F)(F)F)c1 too.
A) 168 to 170 °C

Q) Let us now turn to CCOc1cccc(-c2ccc(C3=CCN(S(=O)(=O)C(C)(C)C(=O)NO)CC3)cc2C)c1
A) 116 to 118 °C

Q) # repeat for CCOc1cccc(-c2ccc(C3=CCN(S(=O)(=O)CC(=O)NO)CC3)cc2)c1
A) 168 to 170 °C
